Assay: HPLC-MS/MS analysis of 4-MMPPO content in tolperisone compositions
Assay type: physicochemical
Conditions: drug lot (API) used in the tablet
experimental-endpoint: [4-MMPPO in Drug Lot or API], ppm (ppm)

{"compound": "Cc1ccc(C(=O)C(C)CN2CCCCC2)cc1 (centres unmarked) [SE0107, tolperisone]", "recorded-result": 20}
{"compound": "Cc1ccc(C(=O)C(C)CN2CCCCC2)cc1 (centres unmarked) [SF0191, tolperisone]", "recorded-result": 22}
{"compound": "Cc1ccc(C(=O)C(C)CN2CCCCC2)cc1 (centres unmarked) [SFO192, tolperisone]", "recorded-result": 21}
{"compound": "Cc1ccc(C(=O)C(C)CN2CCCCC2)cc1 (centres unmarked) [SB0068, tolperisone]", "recorded-result": 39}
{"compound": "Cc1ccc(C(=O)C(C)CN2CCCCC2)cc1 (centres unmarked) [SD0108, tolperisone]", "recorded-result": 14}
